measurement-protocol: Quantitative highthroughput screen to assess conditional lethalithy of SEM cells grown in RPMI1640 with unreated serum (RPMI+s) (AID 1963883); further: nearly all actives have a fitted effect of over 35% in size
measurement-setup: SEM B-ALL cells, CellTiter-Glo viability, 48 h; series mostly up to 45.8 µM
Results filed as inconclusive are left out. Activity calls are given as the source filed them. The call rests on the fitted dose curve; in most records, active means well fitted cell-killing curve with a large enough effect; inconclusive means small, poorly fitted or top-dose-only effect, or effect the other way; inactive means no such curve, though single readings can be large or run the other way.
Possible outcomes: y = active, n = inactive

molecule | assigned-class
CC(C)[C@@H](CS(=O)(=O)C(C)C)N1C(=O)[C@@](C)(CC(=O)O)C[C@H](c2cccc(Cl)c2)[C@H]1c1ccc(Cl)cc1 | y
COc1ccccc1OCC(O)COC(N)=O (configuration not stated) | n
CCC(C)n1ncn(-c2ccc(N3CCN(c4ccc(OC[C@H]5CO[C@](Cn6cncn6)(c6ccc(Cl)cc6Cl)O5)cc4)CC3)cc2)c1=O (some centres not stated) | n
CCOc1ccn(-c2ccc(F)cc2)c(=O)c1C(=O)Nc1ccc(Oc2ccnc(N)c2Cl)c(F)c1 | y
Cc1cn([C@H]2C[C@H](N=[N+]=[N-])[C@@H](CO)O2)c(=O)[nH]c1=O | n
CCN(CC)CCNC(=O)c1ccc2nc(-c3ccccc3)c(-c3ccc(CN4CCC(n5c(=O)[nH]c6ccccc65)CC4)cc3)nc2c1 | y
CNC(=O)c1ccccc1Nc1nc(Nc2ccc(N3CCOCC3)cc2OC)ncc1Cl | y
Cn1cc(C[C@@H](N)C(=O)O)c2ccccc21 | n
Cn1c(=O)c(F)c(Nc2ccc(I)cc2F)c2c(=O)n(C[C@@H](O)CO)cnc21 | y
CNC1CCCN(c2c(F)cc3c(=O)c(C(=O)O)cn(C4CC4)c3c2OC)C1 (configuration not stated) | n
Clc1ccc2c(N3CCN(CCCN4CCN(c5ccnc6cc(Cl)ccc56)CC4)CC3)ccnc2c1 | y
O=C(c1ccc(C=Cc2n[nH]c3ccccc23)cc1)N1CCNCC1 | y

Recorded values, source PubChem BioAssay (NCATS).
